Entries annotated with measured Biodistribution: Bone
ASSAY_PROCEDURE: In vivo biodistribution in mice
Set-up: species or system normal CD-1 male mice
ASSAY_SETUP: iv, 60 min (1 hr) post injection
ENDPOINT_LABEL: Biodistribution: Bone (% dose/g)

INSERT INTO measurements (molecule, value_unit, reported_measurement) VALUES
  ('O=C([O-])CN(CCN(CC(=O)[O-])Cc1cc(CCC(=O)NC(P(=O)(O)O)P(=O)(O)O)ccc1[O-])Cc1cc(CCC(=O)NCCCNC(=O)CCc2ccc(O)c(CN(CCN(CC(=O)O)Cc3cc(CCC(=O)NC(P(=O)(O)O)P(=O)(O)O)ccc3O)CC(=O)O)c2)ccc1[O-].[68Ga+3] [[^68Ga]3]', '% dose/g', 9.26),
  ('O=C([O-])CN(CCN(CC(=O)[O-])Cc1cc(CCC(=O)N[C@@H](CC(=O)O)C(=O)O)ccc1[O-])Cc1cc(CCC(=O)NC(P(=O)(O)O)P(=O)(O)O)ccc1[O-].[68Ga+3] [[^68Ga]1e]', '% dose/g', 14.9),
  ('C[C@H](NC(=O)CCc1ccc([O-])c(CN(CCN(CC(=O)[O-])Cc2cc(CCC(=O)NC(P(=O)(O)O)P(=O)(O)O)ccc2[O-])CC(=O)[O-])c1)C(=O)O.[68Ga+3] [[^68Ga]1d]', '% dose/g', 14.7),
  ('O=C([O-])CN(CCN(CC(=O)[O-])Cc1cc(CCC(=O)NC(P(=O)(O)O)P(=O)(O)O)ccc1[O-])Cc1cc(CCC(=O)NCCCCCC(=O)NCCCC[C@H](NC(=O)N[C@@H](CCC(=O)O)C(=O)O)C(=O)O)ccc1[O-].[68Ga+3] [[^68Ga]1g]', '% dose/g', 15.1),
  ('O=C([O-])CN(CCN(CC(=O)[O-])Cc1cc(CCC(=O)NC(P(=O)(O)O)P(=O)(O)O)ccc1[O-])Cc1cc(CCC(=O)NCC(=O)O)ccc1[O-].[68Ga+3] [[^68Ga]1c]', '% dose/g', 14.7);

----------
ASSAY_PROCEDURE: In vivo biodistribution in mice
Set-up: species or system normal CD-1 male mice
ASSAY_SETUP: iv, 30 min (0.5 hr) post injection
ENDPOINT_LABEL: Biodistribution: Bone (% dose/g)

INSERT INTO measurements (compound, reported_measurement) VALUES
  ('O=C([O-])CN(CCN(CC(=O)[O-])Cc1cc(CCC(=O)NC(P(=O)(O)O)P(=O)(O)O)ccc1[O-])Cc1cc(CCC(=O)NCCCCCC(=O)NCCCC[C@H](NC(=O)N[C@@H](CCC(=O)O)C(=O)O)C(=O)O)ccc1[O-].[68Ga+3] [[^68Ga]1g]', 16.3),
  ('O=C([O-])CN(CCN(CC(=O)[O-])Cc1cc(CCC(=O)NC(P(=O)(O)O)P(=O)(O)O)ccc1[O-])Cc1cc(CCC(=O)NCCCNC(=O)CCc2ccc(O)c(CN(CCN(CC(=O)O)Cc3cc(CCC(=O)NC(P(=O)(O)O)P(=O)(O)O)ccc3O)CC(=O)O)c2)ccc1[O-].[68Ga+3] [[^68Ga]3]', 9.26),
  ('O=C([O-])CN(CCN(CC(=O)[O-])Cc1cc(CCC(=O)N[C@@H](CC(=O)O)C(=O)O)ccc1[O-])Cc1cc(CCC(=O)NC(P(=O)(O)O)P(=O)(O)O)ccc1[O-].[68Ga+3] [[^68Ga]1e]', 16.5),
  ('O=C([O-])CN(CCN(CC(=O)[O-])Cc1cc(CCC(=O)NC(P(=O)(O)O)P(=O)(O)O)ccc1[O-])Cc1cc(CCC(=O)O)ccc1[O-].[68Ga+3] [[^68Ga]1a]', 16.0);
